target: Sphingosine 1-phosphate receptor 3 (Homo sapiens, UniProt Q99500); assay: Agonist activity at human recombinant S1PR3 expressed in CHO cell membranes assessed as [35S]GTPgammaS binding preincubated for 30 mins followed by [35S]GTPgammaS addition measured after 1 hr by topcount analysis
Sequence (Q99500 whole entry): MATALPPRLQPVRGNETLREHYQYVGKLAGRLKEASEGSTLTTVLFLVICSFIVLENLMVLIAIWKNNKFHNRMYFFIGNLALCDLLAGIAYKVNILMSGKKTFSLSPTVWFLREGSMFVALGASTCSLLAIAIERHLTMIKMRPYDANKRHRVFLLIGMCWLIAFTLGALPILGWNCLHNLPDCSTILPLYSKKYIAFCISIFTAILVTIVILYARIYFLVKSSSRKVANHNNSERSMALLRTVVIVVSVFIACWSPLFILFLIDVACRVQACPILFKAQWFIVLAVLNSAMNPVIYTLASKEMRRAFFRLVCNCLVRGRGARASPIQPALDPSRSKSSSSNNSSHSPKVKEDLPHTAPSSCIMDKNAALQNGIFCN
attribute measured: EC50

| smiles repr | attribute measured | result |
| --- | --- | --- |
| CCc1cc(-c2noc(-c3cc(C)c(CNC)s3)n2)cc(C)c1OC[C@@H](O)CNC(=O)CO | EC50 | > 10 µM |
| CCNCc1ccc(-c2nc(-c3cc(C)c(OC[C@@H](O)CNC(=O)CO)c(CC)c3)no2)s1 | EC50 | > 10 µM |
| CCCNCc1cccc(-c2nc(-c3cc(C)c(OC[C@@H](O)CNC(=O)CO)c(CC)c3)no2)c1 | EC50 | > 10 µM |
| CCc1cc(-c2noc(-c3ccc(CN(C)C)cc3C)n2)cc(C)c1OC[C@@H](O)CNC(=O)CO | EC50 | > 10 µM |
| CCc1cc(-c2noc(-c3ccc(CNCC(C)C)c(C)c3)n2)cc(C)c1OC[C@@H](O)CNC(=O)CO | EC50 | > 10 µM |

Record summary for CCc1cc(-c2noc(-c3ccc(CN(C)C)cc3)n2)cc(C)c1OC[C@@H](O)CNC(=O)CO : reported EC50 = > 10 µM

Record summary for CCc1cc(-c2noc(-c3cc(CN(C)CC(C)C)ccc3C)n2)cc(C)c1OC[C@@H](O)CNC(=O)CO : reported EC50 = > 10 µM

Record summary for CCc1cc(-c2noc(-c3cccc(CNC)c3)n2)cc(C)c1OC[C@@H](O)CNC(=O)CO : reported EC50 = > 10 µM

Record summary for CCc1cc(-c2noc(-c3cc(C)nc(CN4CCCC4)c3)n2)cc(C)c1OC[C@@H](O)CNC(=O)CO : reported EC50 = > 10 µM

Record summary for CCc1cc(-c2noc(-c3cc(C)nc(CN(CC)CC)c3)n2)cc(C)c1OC[C@@H](O)CNC(=O)CO : reported EC50 = 8.1 µM

Record summary for CCc1cc(-c2noc(-c3cc(C)c(CNCC(C)C)s3)n2)cc(C)c1OC[C@@H](O)CNC(=O)CO : reported EC50 = 1.4 µM

Record summary for CCc1cc(-c2noc(-c3ccc(C)c(CN(C)C)c3)n2)cc(C)c1OC[C@@H](O)CNC(=O)CO : reported EC50 = > 10 µM

Record summary for CCc1cc(-c2nc(-c3cc(C)c(OC[C@@H](O)CNC(=O)CO)c(CC)c3)no2)ccc1CN(CC)CC : reported EC50 = 0.21 µM

Record summary for CCCc1cc(CN(C)CC(C)C)cc(-c2nc(-c3cc(C)c(OC[C@@H](O)CNC(=O)CO)c(CC)c3)no2)c1 : reported EC50 = 0.0035 µM

---

molecular target: Sphingosine 1-phosphate receptor 3 (Homo sapiens, UniProt Q99500); test: Agonist activity at human recombinant S1PR3 expressed in CHO cell membranes assessed as [35S]GTPgammaS binding preincubated for 30 mins followed by [35S]GTPgammaS addition measured after 1 hr by topcount analysis
attribute measured: EC50

| smiles repr | EC50 |
| --- | --- |
| CCc1cc(-c2noc(-c3cc(CN(C)CC(C)C)cc(C(C)C)c3)n2)cc(C)c1OC[C@@H](O)CNC(=O)CO | 1.4 nM |

Record summary for CCc1cc(-c2nc(-c3cc(C)c(OC[C@@H](O)CNC(=O)CO)c(CC)c3)no2)ccc1CN(C)CC : reported EC50 = 100 nM

Record summary for CCc1cc(-c2noc(-c3ccc(CNC)s3)n2)cc(C)c1OC[C@@H](O)CNC(=O)CO : reported EC50 = > 10000 nM
